As shown below, each of these substances has a reported pEC50 value.
Target entity: Neuropeptide Y receptor type 4 (Homo sapiens, UniProt P50391)
Sequence (P50391 whole entry): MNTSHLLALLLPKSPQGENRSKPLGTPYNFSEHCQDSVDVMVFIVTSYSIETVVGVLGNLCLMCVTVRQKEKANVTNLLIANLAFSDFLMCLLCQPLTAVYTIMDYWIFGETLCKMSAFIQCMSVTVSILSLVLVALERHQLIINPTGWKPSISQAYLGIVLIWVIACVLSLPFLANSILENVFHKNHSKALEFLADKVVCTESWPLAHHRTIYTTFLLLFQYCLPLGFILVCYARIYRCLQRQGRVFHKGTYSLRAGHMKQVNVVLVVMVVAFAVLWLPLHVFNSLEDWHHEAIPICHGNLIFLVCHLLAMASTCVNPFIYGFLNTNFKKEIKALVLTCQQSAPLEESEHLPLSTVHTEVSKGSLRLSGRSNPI
Assay details: Agonist activity at human Y4R expressed in HEK293T cells co-expressing ARRB1 assessed as induction of beta-arrestin1 recruitment measured for 40 mins by D-luciferin based luminescence assay
Format: cell-based, HEK-293T
Assay conditions: read-out: EC50
Notebook: values listed as pEC50 are -log10 of the concentration (mol/L).

Example entries begin here.
Ac-RGYRLRW-NH2; 6.28
Ac-RGWRLRY-NH2; 6.80
Ac-RGRLRY-NH2; 6.74

// next item, pEC50 requested
Prompt: Name the recorded pEC50 for `Ac-RFRLRY-NH2` .
Response: 6.26
